target: KRAS (Homo sapiens); construct: endogenous in cells; host or cells: KE39 (KRAS amplified) cells; test: KRASamp MSD assay; assay type: cell-based; details: KE39 (KRAS amplified) cells, treated with test compounds for 24 hr, MSD readout of KRAS degradation
Sequence (P01116 1-188 isoform P01116-2): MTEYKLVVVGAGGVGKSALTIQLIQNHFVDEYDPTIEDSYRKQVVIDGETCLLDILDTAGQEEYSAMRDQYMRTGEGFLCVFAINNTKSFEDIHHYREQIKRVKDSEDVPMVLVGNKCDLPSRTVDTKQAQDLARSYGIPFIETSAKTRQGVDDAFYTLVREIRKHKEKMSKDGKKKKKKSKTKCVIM
experimental.readout: DC50

These solved cases illustrate the format of a correct answer.
QUERY: Give the value of DC50 reported for the following: CCc1c(F)ccc2cc(O)cc(-c3ncc4c(N5CCC[C@@](C)(O)C5)nc(OC[C@@]56CCCN5[C@H](COC(=O)N5CCC7(CCC(N8CCC(c9ccc%10c(c9)n(C)c(=O)n%10C9CCC(=O)NC9=O)CC8)CC7)CC5)CC6)nc4c3F)c12 (some centres unmarked)
RESULT: < 1 nM

QUERY: Give a short answer stating reported DC50 for C#Cc1c(F)ccc2cc(O)cc(-c3ncc4c(N5CCC[C@@](C)(O)C5)nc(OC[C@@]56CCCN5[C@H](COC(=O)N5CCC7(CCC(CN8CCC(c9ccc%10c(c9)n(C)c(=O)n%10C9CCC(=O)NC9=O)CC8)CC7)C5)CC6)nc4c3F)c12 (some centres unmarked) .
RESULT: < 1 nM

QUERY: Given the compound CCc1c(F)ccc2cc(O)cc(-c3ncc4c(N5CCC[C@@](C)(O)C5)nc(OCC56CCCN5[C@@H](COC(=O)N5CCC(CN7CCC(c8ccc9c(c8)n(C)c(=O)n9C8CCC(=O)NC8=O)CC7)CC5)CC6)nc4c3F)c12 (some centres unmarked) , write its reported DC50.
RESULT: 1 to 10 nM

---
QUERY: Please report the measured DC50 for C#Cc1c(F)ccc2cccc(-c3ncc4c(N5CCC[C@@](C)(O)C5)nc(OCC5(CN6CCN(CC7CCN(c8ccc9c(c8)C(=O)N(C8CCC(=O)NC8=O)C9=O)CC7)CC6)CC5)nc4c3F)c12 (some centres unmarked)
RESULT: ≥ 10 nM

QUERY: // fetch DC50 given entry CCc1c(F)ccc2cc(O)cc(-c3ncc4c(N5CCC[C@H](CO)C5)nc(OC[C@@]56CCCN5[C@H](COC(=O)N5CCC(CN7CCC(c8ccc9c(c8)n(C)c(=O)n9C8CCC(=O)NC8=O)CC7)CC5)CC6)nc4c3F)c12 (some centres unmarked)
RESULT: 1 to 10 nM

###

biological target: KRAS G12D (Homo sapiens, UniProt P01116, G12D); construct: AsPc-1-KRAS (G12D)-HiBit-KI cell (Pharmaron); host or cells: AsPc-1-KRAS (G12D)-HiBit-KI cells (HiBiT knock-in at the endogenous KRAS locus); assay: KRAS G12D HiBit assay; format: cell-based; settings: AsPc-1-KRAS (G12D)-HiBit-KI cell, compound treatment for 24 hours, absolute DC50; class symbols
Sequence (P01116 1-188 isoform P01116-2 G12D): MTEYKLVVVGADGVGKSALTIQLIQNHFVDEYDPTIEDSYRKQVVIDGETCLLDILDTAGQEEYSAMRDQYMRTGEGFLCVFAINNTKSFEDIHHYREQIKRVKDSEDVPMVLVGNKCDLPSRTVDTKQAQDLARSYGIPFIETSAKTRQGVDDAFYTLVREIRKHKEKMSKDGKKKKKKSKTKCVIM
Below is a list of entries, each paired with its recorded DC50 value.

Take a look at these entries with their results.
QUERY: Give recorded DC50. CCc1c(F)ccc2cc(O)cc(-c3ncc4c(N5CCC[C@@](C)(O)C5)nc(OC[C@@]56CCCN5[C@H](COC(=O)N5CCC(CN7CCC(c8ccc9c(c8F)n(C)c(=O)n9C8CCC(=O)NC8=O)CC7)CC5)CC6)nc4c3F)c12 (stereo partly drawn)
RESULT: < 100 nM

QUERY: Read off the recorded DC50 for C#Cc1c(F)ccc2cccc(-c3ncc4c(N5CCC[C@@](C)(O)C5)nc(OCC5(CN6CCN(Cc7ccc8c(c7)n(C)c(=O)n8C7CCC(=O)NC7=O)CC6)CC5)nc4c3F)c12 (stereo partly drawn)
RESULT: > 300 nM

// moving on: another record for DC50
QUERY: Give me measured DC50, please, for this molecule: C#Cc1c(F)ccc2cc(O)cc(-c3ncc4c(N5CCC[C@@](C)(O)C5)nc(OCC5(CN6CCC7(CC6)CCN(c6ccc8c(c6)n(C)c(=O)n8C6CCC(=O)NC6=O)CC7)CC5)nc4c3F)c12 (stereo partly drawn)
RESULT: < 100 nM

###

target: KRAS G12V (Homo sapiens, UniProt P01116, G12V); construct: SW620-KRAS (G12V)-HiBit-KI cell (Pharmaron); host or cells: SW620-KRAS (G12V)-HiBit-KI cells (HiBiT knock-in at the endogenous KRAS locus); experiment: KRAS G12V HiBit assay; type: cell-based; details: SW620-KRAS (G12V)-HiBit-KI cells, compound treatment for 24 hours, class symbols
Sequence (P01116 1-188 isoform P01116-2 G12V): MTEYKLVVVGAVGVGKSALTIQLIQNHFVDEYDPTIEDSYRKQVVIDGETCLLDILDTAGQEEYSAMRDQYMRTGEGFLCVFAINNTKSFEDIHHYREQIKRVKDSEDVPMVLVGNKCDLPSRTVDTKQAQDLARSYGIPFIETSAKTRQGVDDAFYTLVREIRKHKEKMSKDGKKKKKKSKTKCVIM
experimental.readout: DC50

QUERY: // Input: CCc1c(F)ccc2cc(O)cc(-c3ncc4c(N5CCC[C@@H](CO)C5)nc(OC[C@@]56CCCN5[C@H](COC(=O)N5CCC(CN7CCC(c8ccc9c(c8)n(C)c(=O)n9C8CCC(=O)NC8=O)CC7)CC5)CC6)nc4c3F)c12 (stereo partly drawn) [Compound 340] . Output its DC50 only.
RESULT: < 10 nM

###

biological target: KRAS G12V (Homo sapiens, UniProt P01116, G12V); construct: SW620-KRAS (G12V)-HiBit-KI cell (Pharmaron); host or cells: SW620-KRAS (G12V)-HiBit-KI cells (HiBiT knock-in at the endogenous KRAS locus); assay: KRAS G12V HiBit assay; type: cell-based; conditions: SW620-KRAS (G12V)-HiBit-KI cells, compound treatment for 24 hours, class symbols
experimental.readout: DC50

QUERY: Answer with the recorded DC50 for the molecule listed here: CCc1c(F)ccc2cc(O)cc(-c3ncc4c(N5CCC[C@@](C)(O)C5)nc(OC[C@@]56CCCN5[C@H](COC(=O)N5CCC(CN7CC8(CC(c9ccc%10c(c9)n(C)c(=O)n%10C9CCC(=O)NC9=O)C8)C7)CC5)CC6)nc4c3F)c12 (stereo partly drawn) [Compound 366]
RESULT: 10 to 100 nM

QUERY: For the molecule CCc1c(F)ccc2cc(O)cc(-c3ncc4c(N5CCC[C@@](C)(O)C5)nc(OC[C@@]56CCCN5[C@H](COC(=O)N5CCC(C#Cc7cccc8c7n(C)c(=O)n8C7CCC(=O)NC7=O)CC5)CC6)nc4c3F)c12 (stereo partly drawn) [Compound 403] , report DC50.
RESULT: > 100 nM

Would you kindly look at the next entry?
QUERY: Please report the measured DC50 for CCc1c(F)ccc2cc(O)cc(-c3ncc4c(N5CCC[C@@](C)(O)C5)nc(OC[C@@]56CCCN5[C@H](COC(=O)N5CCC(CC7CCN(c8ccc9c(c8)n(C)c(=O)n9C8CCC(=O)NC8=O)CC7)CC5)CC6)nc4c3F)c12 (stereo partly drawn) [Compound 98]
RESULT: < 10 nM

###

Items are presented alongside their recorded DC50.
biological target: KRAS G12D (Homo sapiens, UniProt P01116, G12D); construct: AsPc-1-KRAS (G12D)-HiBit-KI cell (Pharmaron); host or cells: AsPc-1-KRAS (G12D)-HiBit-KI cells (HiBiT knock-in at the endogenous KRAS locus); experiment: KRAS G12D HiBit assay; format: cell-based; settings: AsPc-1-KRAS (G12D)-HiBit-KI cell, compound treatment for 24 hours, absolute DC50; class symbols

Solved entries:
QUERY: Identify DC50 associated with the compound CCc1c(F)ccc2cccc(-c3ncc4c(N5CCC[C@@](C)(O)C5)nc(OC[C@@]56CCCN5[C@H](COC(=O)NCCOCCOCCOc5ccc7c(c5)n(C)c(=O)n7C5CCC(=O)NC5=O)CC6)nc4c3F)c12 (stereo partly shown) [Compound 104]
RESULT: > 300 nM

QUERY: Return reported DC50. Input compound: CCc1c(F)ccc2cc(O)cc(-c3ncc4c(N5CCC[C@@](C)(O)C5)nc(OC[C@@]56CCCN5[C@H](COC(=O)N5CC7(CCC(N8CCC(c9ccc%10c(c9)n(C)c(=O)n%10C9CCC(=O)NC9=O)CC8)CC7)C5)CC6)nc4c3F)c12 (stereo partly shown) [Compound 467]
RESULT: < 100 nM

QUERY: Tell me DC50 reported for C#Cc1c(F)ccc2cc(O)cc(-c3ncc4c(N5CCC[C@@](C)(O)C5)nc(OC[C@@]56CCCN5[C@H](COC(=O)N5CCC(OCCC#Cc7cccc8c7n(C)c(=O)n8C7CCC(=O)NC7=O)CC5)CC6)nc4c3F)c12 (stereo partly shown) [Compound 127]
RESULT: < 100 nM

QUERY: Give reported DC50 value for C#Cc1c(F)ccc2cc(O)cc(-c3ncc4c(N5CCC[C@@](C)(O)C5)nc(OCC5(CN6CCC(N7CCC(c8ccc9c(C%10CCC(=O)NC%10=O)nn(C)c9c8)CC7)CC6)CC5)nc4c3F)c12 (stereo partly shown) [Compound 58]
RESULT: < 100 nM

QUERY: Look up and report measured DC50 for this entry: C#Cc1c(F)ccc2cc(O)cc(-c3ncc4c(N5CCC[C@@](C)(O)C5)nc(OC[C@@]56CCCN5[C@H](COC(=O)NCCOCCOCCOc5ccc7c(c5)n(C)c(=O)n7C5CCC(=O)NC5=O)CC6)nc4c3F)c12 (stereo partly shown) [Compound 115]
RESULT: > 300 nM

QUERY: For the compound C#Cc1c(F)ccc2cc(O)cc(-c3ncc4c(N5CCC[C@@](C)(O)C5)nc(OCC5(CN6CC7(C6)CN(c6ccc8c(c6)n(C)c(=O)n8C6CCC(=O)NC6=O)C7)CC5)nc4c3F)c12 (stereo partly shown) [Compound 51] , give its measured DC50 value.
RESULT: < 100 nM

QUERY: Hello, please tell me recorded DC50 for this one: C#Cc1c(F)ccc2cccc(-c3ncc4c(N5CCCC(C#N)CC5)nc(OC[C@@]56CCCN5[C@H](COC(=O)NCCOc5ccc7c(c5)n(C)c(=O)n7C5CCC(=O)NC5=O)CC6)nc4c3F)c12 (stereo partly shown) [Compound 116]
RESULT: > 300 nM

QUERY: Provide one value: measured DC50 of C#Cc1c(F)ccc2cccc(-c3ncc4c(N5CCC[C@@](C)(O)C5)nc(OCC5(CN6CCC(N7CCC(c8cccc9c8n(C)c(=O)n9C8CCC(=O)NC8=O)CC7)CC6)CC5)nc4c3F)c12 (stereo partly shown) [Compound 74]
RESULT: > 300 nM

QUERY: Give the reported value of DC50 for this record: C#Cc1c(F)ccc2cccc(-c3ncc4c(N5CCC[C@@](C)(O)C5)nc(OCC5(CN6CCN(CC7CCN(c8ccc9c(c8)n(C)c(=O)n9C8CCC(=O)NC8=O)CC7)CC6)CC5)nc4c3F)c12 (stereo partly shown) [Compound 24]
RESULT: > 300 nM

QUERY: Give the reported value of DC50 for this record: C#Cc1c(F)ccc2cc(O)cc(-c3ncc4c(N5CCC[C@@](C)(O)C5)nc(OC[C@@]56CCCN5[C@H](COC(=O)N5CCC7(CCC(N8CCC(c9ccc%10c(c9)n(C)c(=O)n%10C9CCC(=O)NC9=O)CC8)CC7)CC5)CC6)nc4c3F)c12 (stereo partly shown) [Compound 413]
RESULT: < 100 nM

Continuing:
QUERY: Supply DC50 value. Item: CCc1c(F)ccc2cc(O)cc(-c3ncc4c(N5CCC[C@@](C)(O)C5)nc(OC[C@@]56CCCN5[C@H](CN5CCC7(CC5)CC(N5CCC(c8ccc9c(c8)n(C)c(=O)n9C8CCC(=O)NC8=O)CC5)C7)CC6)nc4c3F)c12 (stereo partly shown) [Compound 471]
RESULT: < 100 nM

QUERY: Entry CCc1c(F)ccc2cc(O)cc(-c3ncc4c(N5CCC[C@@](C)(O)C5)nc(OC[C@]56CCCN5[C@H](COC(=O)N5CCC(CN7CCC(c8ccc9c(c8)n(C)c(=O)n9C8CCC(=O)NC8=O)CC7)CC5)CC6)nc4c3F)c12 (stereo partly shown) [Compound 390] needs its DC50 filled in; supply it.
RESULT: < 100 nM

QUERY: In one line, give reported DC50 of the entry CCc1c(F)ccc2cc(O)cc(-c3ncc4c(N5CCCOCC5)nc(OC[C@]56CCCN5[C@H](COC(=O)N5CCC(CN7CCC(c8ccc9c(c8)n(C)c(=O)n9C8CCC(=O)NC8=O)CC7)CC5)CC6)nc4c3F)c12 (stereo partly shown) [Compound 423] .
RESULT: < 100 nM

QUERY: Supply DC50 value. Item: CCc1c(F)ccc2cc(O)cc(-c3ccc4c(N5CCC[C@@](C)(O)C5)nc(OC[C@@]56CCCN5[C@H](COC(=O)N5CCC7(CC5)CC(N5CCC(c8ccc9c(c8)n(C)c(=O)n9C8CCC(=O)NC8=O)CC5)C7)CC6)nc4c3F)c12 (stereo partly shown) [Compound 355]
RESULT: < 100 nM

QUERY: Return DC50 (reported value) for this compound: C#Cc1c(F)ccc2cccc(-c3ncc4c(N5CCC[C@@](C)(O)C5)nc(OCC5(CN6CCN(CCN7CCN(c8ccc9c(c8)n(C)c(=O)n9C8CCC(=O)NC8=O)CC7)CC6)CC5)nc4c3F)c12 (stereo partly shown) [Compound 27]
RESULT: > 300 nM

QUERY: Answer with the recorded DC50 of C#Cc1c(F)ccc2cccc(-c3ncc4c(N5CCC[C@@](C)(O)C5)nc(OCC5(CN6CCN(Cc7cccc8c7n(C)c(=O)n8C7CCC(=O)NC7=O)CC6)CC5)nc4c3F)c12 (stereo partly shown) [Compound 61] only.
RESULT: > 300 nM
